- assay-notes: Assay for General Anesthetic Phenotype in Xenopus Tadpoles
- settings: startle-response immobility, 1 h, measured here: 24 h immobility, toxicity/death, at 10 µM
Records with an inconclusive call do not appear.
Would you kindly list immobility for each of these compounds?

[
  {
    "smi": "Cc1ccccc1-c1ccc(=O)n(CC(=O)NCCc2ccccc2)n1",
    "immobility": "10%"
  },
  {
    "smi": "Cc1ccc(=O)n(CC(=O)NCCc2ccccc2)n1",
    "immobility": "15%"
  },
  {
    "smi": "O=C(Cn1nc(-c2cccnc2)ccc1=O)NCCc1ccccc1",
    "immobility": "15%"
  },
  {
    "smi": "N#Cc1ccc(-c2ccc(=O)n(CC(=O)NCCc3ccccc3)n2)cc1",
    "immobility": "5%"
  },
  {
    "smi": "CCCCc1ccc(-c2ccc(=O)n(CC(=O)NCCc3ccccc3)n2)cc1",
    "immobility": "5%"
  },
  {
    "smi": "CC(C)COc1ccc(-c2ccc(=O)n(CC(=O)NCCc3ccccc3)n2)cc1",
    "immobility": "0%"
  },
  {
    "smi": "CC(C)c1ccc(=O)n(CC(=O)NCCc2ccccc2)n1",
    "immobility": "5%"
  },
  {
    "smi": "C[S+](=O)([O-])c1ccc(-c2ccc(=O)n(CC(=O)NCCc3ccccc3)n2)cc1",
    "immobility": "5%"
  }
]

Each compound below has a recorded value; state its immobility.
1. Cc1ccc(-c2ccc(=O)n(CC(=O)NCCc3ccccc3)n2)cn1
2. O=C(Cn1nc(-c2ccncc2)ccc1=O)NCCc1ccccc1
3. CC(C)(C)c1ccc(-c2ccc(=O)n(CC(=O)NCCc3ccccc3)n2)cc1
4. O=C(Cn1ncccc1=O)NCCc1ccccc1
5. CN(C)c1ccc(-c2ccc(=O)n(CC(=O)NCCc3ccccc3)n2)cc1

Data returned:
0%
10%
10%
5%
10%

Data request: Kindly indicate its recorded immobility. Item: COc1ccc(-c2ccc(=O)n(CC(=O)NCCc3ccccc3)n2)cc1OC
Data returned: 15%
